measured on: Cytochrome P450 2D6 (Homo sapiens, UniProt P10635)
Sequence (P10635 whole entry): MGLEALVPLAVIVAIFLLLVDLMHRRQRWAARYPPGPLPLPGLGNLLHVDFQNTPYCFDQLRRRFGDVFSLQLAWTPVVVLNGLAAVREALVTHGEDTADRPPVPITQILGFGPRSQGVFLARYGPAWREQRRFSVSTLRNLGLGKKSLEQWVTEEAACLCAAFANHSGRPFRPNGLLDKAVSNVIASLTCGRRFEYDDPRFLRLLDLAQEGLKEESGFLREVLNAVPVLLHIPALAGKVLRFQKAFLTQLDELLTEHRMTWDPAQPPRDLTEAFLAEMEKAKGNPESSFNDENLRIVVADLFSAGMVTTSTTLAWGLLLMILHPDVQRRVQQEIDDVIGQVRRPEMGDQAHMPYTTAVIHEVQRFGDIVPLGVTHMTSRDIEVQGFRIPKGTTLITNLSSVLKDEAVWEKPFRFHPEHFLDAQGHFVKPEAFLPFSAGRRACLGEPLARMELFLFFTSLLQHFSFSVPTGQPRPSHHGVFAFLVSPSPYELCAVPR
study conditions: bti-tn-5b1-4; further: in other assays of this panel Not Active means under 50% inhibition at 10 µM
recorded endpoint: IC50

The following compounds have reported results that may help.
# compound, IC50
records = [
    ("Oc1ccc(/C=C/c2cc(O)cc(O)c2)cc1", "Not Active"),
    ("CC1(COc2ccc(CC3SC(=O)NC3=O)cc2)CCCCC1 (stereo not given)", "Not Active"),
    ("CC(C)(C#N)c1cc(Cn2cncn2)cc(C(C)(C)C#N)c1", "Not Active"),
    ("CC(C)Cn1cnc2c(N)nc3ccccc3c21", "Not Active"),
    ("Cc1cccc(C)c1NC(=O)C(C)N (stereo not given) [TOCAINIDE]", "Not Active"),
    ("Clc1cc(Cl)c(OCC#CI)cc1Cl", "Not Active"),
]

Kindly give each listed record's IC50.
1. COC(=O)Nc1nc2ccc(Sc3ccccc3)cc2[nH]1
2. COc1ccccc1OCCNCC(O)COc1cccc2[nH]c3ccccc3c12 (stereo not given)

[A]
1. Not Active
2. Not Active

I have 2 compounds here; please give me IC50 for each one.
1. Cl.NC[C@H]1CC[C@H](C(=O)Oc2ccc(CCC(=O)O)cc2)CC1 [CETRAXATE HYDROCHLORIDE]
2. CCOc1cc(N)c(Cl)cc1C(=O)NCC1CN(Cc2ccc(F)cc2)CCO1 (stereo not given) [MOSAPRIDE]

[A]
1: Not Active; 2: Not Active
